- measured-target: EtLsc (Erwinia tasmaniensis levansucrase) (Erwinia tasmaniensis)
- Construct: gene lsc; lsc gene amplified from Et1/99, pMCSG49 vector, E. coli BL21(DE3) Star pLysS; His6 tag cleaved with TEV protease; IMAC and size exclusion; catalytic triad Asp46, Asp203, Glu287
- Sequence (B2VCC3 entry or part of it): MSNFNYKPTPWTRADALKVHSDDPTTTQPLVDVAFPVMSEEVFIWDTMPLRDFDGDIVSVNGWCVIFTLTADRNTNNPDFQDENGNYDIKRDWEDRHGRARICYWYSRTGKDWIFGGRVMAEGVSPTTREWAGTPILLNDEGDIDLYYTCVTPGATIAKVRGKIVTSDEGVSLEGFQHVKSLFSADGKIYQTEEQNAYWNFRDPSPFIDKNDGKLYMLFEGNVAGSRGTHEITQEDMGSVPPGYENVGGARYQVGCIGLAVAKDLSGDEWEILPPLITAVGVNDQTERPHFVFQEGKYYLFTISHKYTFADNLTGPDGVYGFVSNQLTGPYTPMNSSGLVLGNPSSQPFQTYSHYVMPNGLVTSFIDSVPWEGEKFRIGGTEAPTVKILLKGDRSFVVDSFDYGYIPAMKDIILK
- assay-remarks: microscale thermophoresis, label-free (Monolith NT.LabelFree)
- Assay type: binding
reported-endpoint: Kd (mM)
// note: answer is a bare numeric in mM

Exam item: I would be grateful if you could share the reported Kd for OCC[C@H](O)CO (mixture of isomers) [(S)-1,2,4-butanetriol] .
Marked response: 84.9

Entry source: paper PMC9350837
